biological target: UniProt P20393; experiment: modulators of Rev-erb alpha DNA binding, dose response, biochemical, FITC-DNA, fluorescence polarization (AID 1259321)
Active and inactive are the calls of the source.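 How the source made its calls: active means half-maximal concentration for changing protein binding to DNA, from the fitted dose curve, below 10 micromolar; inactive means the rest.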
measured endpoint: IC50

Solved entries (count: 5):
query: I am curious: what IC50 value has been reported for CC(=O)OCC1OC(n2c(-c3ccc(Cl)cc3)ccc(C#N)c2=S)C(OC(C)=O)C(OC(C)=O)C1OC(C)=O (stereo not given) ?
result: inactive

query: I am curious: what IC50 value has been reported for COC(=O)c1ccccc1NC(=O)C1=CC(c2cccs2)=NS(=O)(=O)N1C ?
result: 1140 nM

query: I am curious: what IC50 value has been reported for Cc1cc(C)c2nc(SCC(=O)Nc3cc(C)on3)c(C#N)cc2c1 ?
result: 4170 nM

query: I am curious: what IC50 value has been reported for O=C(Nc1nc(=O)c2ccccc2s1)c1ccc(Cl)cc1 ?
result: > 40000 nM (inactive)

query: I am curious: what IC50 value has been reported for COc1ccc2cc(OCC(=O)NNC(=O)Nc3ccc(F)cc3)ccc2c1 ?
result: > 40000 nM (inactive)

Return reported IC50 values for all items listed beneath this line.
1. COc1cc2c3nnc(-c4ccc(F)cc4)c-3cn(Cc3ccccc3F)c2cc1OC
2. CCN(CC)C(=O)c1ccc(/C=C/c2c[nH]c3ccccc23)[n+](C)c1
3. CN1C(=O)C(=Cc2ccc(N3CCOCC3)o2)C(=O)N(C)C1=O
4. Cc1cccc(NC(=O)C2CCCN(S(=O)(=O)c3cccc4nsnc34)C2)c1 (stereo not given)

result:
1980 nM
inactive
1360 nM
2170 nM

query: I am curious: what IC50 value has been reported for COc1nc(-c2ccccc2)ccc1-c1noc(-c2cccs2)n1 ?
result: > 40000 nM (inactive)

---

target: Nuclear receptor subfamily 1 group D member 1 (Homo sapiens) (UniProt P20393); assay: modulators of Rev-erb alpha DNA binding, dose response, biochemical, FITC-DNA, fluorescence polarization (AID 1259321)
Sequence (P20393 whole entry, looked up): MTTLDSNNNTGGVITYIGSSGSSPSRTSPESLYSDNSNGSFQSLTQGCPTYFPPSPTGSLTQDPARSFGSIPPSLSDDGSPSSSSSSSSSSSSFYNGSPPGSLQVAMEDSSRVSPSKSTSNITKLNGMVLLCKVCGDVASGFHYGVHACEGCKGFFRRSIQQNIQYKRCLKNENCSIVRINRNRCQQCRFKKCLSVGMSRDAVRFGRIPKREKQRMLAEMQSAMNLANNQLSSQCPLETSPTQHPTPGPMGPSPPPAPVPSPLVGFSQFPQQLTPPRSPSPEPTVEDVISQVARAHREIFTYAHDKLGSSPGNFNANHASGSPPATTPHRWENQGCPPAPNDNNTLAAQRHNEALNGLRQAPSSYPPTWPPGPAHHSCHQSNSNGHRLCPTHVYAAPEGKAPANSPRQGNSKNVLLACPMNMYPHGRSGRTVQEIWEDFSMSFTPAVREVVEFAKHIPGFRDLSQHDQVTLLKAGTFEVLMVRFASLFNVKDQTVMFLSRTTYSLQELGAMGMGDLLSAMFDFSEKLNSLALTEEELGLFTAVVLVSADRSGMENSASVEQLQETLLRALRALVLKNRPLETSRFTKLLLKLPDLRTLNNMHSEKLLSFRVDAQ
Active and inactive are the calls of the source.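 The calls were made as follows: active = half-maximal concentration for changing protein binding to DNA, from the fitted dose curve, below 10 micromolar; inactive = the rest.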
Use one of these outcomes when replying: 1 (active), -1 (inactive)

query: For this compound, state the assay outcome: CCC(=O)c1cn(CC(=O)Nc2ccc(C)cc2C)c2ccccc12
result: 1

Others:
query: For this compound, state the assay outcome: C=CCn1c(SCC(=O)Nc2sccc2C#N)nc2sc(C)c(C)c2c1=O
result: -1

---

target: Nuclear receptor subfamily 1 group D member 1 (Homo sapiens) (UniProt P20393); test: modulators of Rev-erb alpha DNA binding, dose response, biochemical, FITC-DNA, fluorescence polarization (AID 1259321)
The source made the active and inactive calls.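 How the source made its calls: active means half-maximal concentration for changing protein binding to DNA, from the fitted dose curve, below 10 micromolar; inactive means the rest.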
Use one of these outcomes when replying: 1 (active), 0 (inactive)

Observe how each entry below is paired with its result.
query: For this molecule, state the assay outcome: CCN1C(=O)/C(=C/c2ccc(N3CCCC3)cc2)NC1=S
result: 1

query: For this molecule, state the assay outcome: COc1ccccc1N1N=C(C(=O)c2ccccc2)C2C(=O)N(c3ccc(Br)cc3)C(=O)C21 (stereo unspecified)
result: 1

query: For this molecule, state the assay outcome: CCCCN1C(=O)/C(=C/C=C2\Oc3ccccc3N2CC)SC1=S
result: 1

query: For this molecule, state the assay outcome: COc1ccc(Cl)cc1NC(=O)c1[nH]c(C)c(C(C)=O)c1C
result: 1

query: For this molecule, state the assay outcome: CCCOc1ccc(/C(CC)=N/NC(=O)C2(C)CC2(Br)Br)cc1 (stereo unspecified)
result: 0

Others:
query: For this molecule, state the assay outcome: N#C/C(=C(/O)C(Cl)c1ccccc1)c1nc2ccccc2s1 (stereo unspecified)
result: 1

---

target: Nuclear receptor subfamily 1 group D member 1 (Homo sapiens) (UniProt P20393); experiment: modulators of Rev-erb alpha DNA binding, dose response, biochemical, FITC-DNA, fluorescence polarization (AID 1259321);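 active means half-maximal concentration for changing protein binding to DNA, from the fitted dose curve, below 10 micromolar; inactive means the rest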
Use one of these outcomes when replying: true (1) for active, false (0) for inactive

query: For this molecule, state the assay outcome: Cc1[nH]c2ccccc2c1/C=C/c1cc[n+](C)cc1
result: true (1)

query: For this molecule, state the assay outcome: N#Cc1cccc(Cn2ccc3ccc(-c4ccc5ccn(Cc6cccc(C#N)c6)c5c4)cc32)c1
result: true (1)

query: For this molecule, state the assay outcome: COc1ccc(-c2cc(-c3ccc(C)cc3)nc(SCc3nnc(-c4ccccc4)o3)c2C#N)cc1OC
result: true (1)

---

Consider the following pIC50 values measured on Nuclear receptor subfamily 1 group D member 1 (Homo sapiens).
Give bare numbers, as −log10 of the molar value.

Solved entries (count: 4):
query: Give Nuclear receptor subfamily 1 group D member 1 (Homo sapiens) pIC50 for CCOc1ccc(C(=O)Nc2nc(C)c(C(=O)OC)s2)cc1
result: 5.66

query: Give Nuclear receptor subfamily 1 group D member 1 (Homo sapiens) pIC50 for CN(C)/C=N/C1=C(C#N)C(c2cccs2)c2ccc3ccccc3c2O1 (stereo not given)
result: 5.40

query: Give Nuclear receptor subfamily 1 group D member 1 (Homo sapiens) pIC50 for O=C(CCCOc1ccc(Cl)cc1Cl)NNC(=O)c1ccc(NC(=O)c2ccccc2)cc1
result: 5.24

query: Give Nuclear receptor subfamily 1 group D member 1 (Homo sapiens) pIC50 for COc1ccc(NC(=O)NNC(=O)c2cc3ccccc3cc2O)cc1
result: 5.01

Now consider a different compound.
query: Give Nuclear receptor subfamily 1 group D member 1 (Homo sapiens) pIC50 for COc1ccccc1NC(=O)c1sc2ncn(Cc3cccc4ccccc34)c(=O)c2c1C
result: 5.62

---

target: UniProt:P20393; assay: modulators of Rev-erb alpha DNA binding, dose response, biochemical, FITC-DNA, fluorescence polarization (AID 1259321)
Calls of active or inactive are those of the source.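 Rule for the calls: active = half-maximal concentration for changing protein binding to DNA, from the fitted dose curve, below 10 micromolar; inactive = the rest.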
measured endpoint: IC50

Solved entries (count: 5):
query: I am curious: what IC50 value has been reported for Cc1cccc2cc(C#N)c(SCC(=O)NCc3cccs3)nc12 ?
result: 9.79 µM

query: I am curious: what IC50 value has been reported for Cc1ccccc1OCC(=O)Nc1ccc2c(c1)C(=O)c1ccccc1C2=O ?
result: > 40 µM (inactive)

query: I am curious: what IC50 value has been reported for Cc1onc(-c2ccccc2)c1C(=O)Nc1nc(-c2cc(F)ccc2F)cs1 ?
result: 4.24 µM

query: I am curious: what IC50 value has been reported for CC(C)Nc1nc(-c2cccnc2)nc(-c2ccc(Cl)cc2)c1C#N ?
result: > 40 µM (inactive)

query: I am curious: what IC50 value has been reported for COc1ccc(CCn2c(O)c(C=Nc3ccc(F)cc3)c(=O)[nH]c2=O)cc1OC ?
result: inactive

Return reported IC50 values for all items listed beneath this line.
1. O=C(CSc1nnc(-c2ccncc2)n1-c1ccc(Cl)cc1)c1ccc(Cl)c(Cl)c1
2. CCN1/C(=C/C=C/c2oc3ccc(-c4ccccc4)cc3[n+]2CC)Oc2ccc(-c3ccccc3)cc21
3. COc1ccc(C(=O)c2c[nH]c(C(=O)NCc3cccs3)c2)cc1
4. COc1cccc(-n2nnnc2SCC(=O)Nc2ccc3c(c2)OCCO3)c1
5. CCOC(=O)c1c(NC(=O)COC(=O)CCOc2ccccc2C)sc(C(=O)NC)c1C

result:
1. 0.278 µM
2. > 40 µM (inactive)
3. > 40 µM (inactive)
4. inactive
5. 0.831 µM

Return reported IC50 values for all items listed beneath this line.
1. COc1ccc(-n2nc(C(=O)NCC(=O)NCc3ccc(F)cc3)c3ccccc3c2=O)cc1OC
2. CC1(C)Cc2c(sc3c2c(N)nc(=S)n3Cc2ccc(Br)cc2)CO1
3. CCN(CC)c1ccc(/C=C/c2cccc[n+]2C)c(OC)c1
4. CCCCN1C(=O)/C(=C/C=C2/CC(C)(C)CN2C)SC1=S
5. CCCCOC(=O)c1cc(C)nc2ccc(Br)cc12
6. COc1ccccc1N=Nc1nc(-c2ccccc2)c(-c2ccccc2)[nH]1

result:
1: inactive; 2: inactive; 3: 7.32 µM; 4: > 40 µM (inactive); 5: inactive; 6: 0.465 µM

Return reported IC50 values for all items listed beneath this line.
1. Cc1ccc(C(=O)Nc2cccc(C(F)(F)F)c2)cc1NC(=O)c1nccn1C
2. COc1ccc(C(=O)Nc2scc(-c3ccc(Cl)cc3Cl)c2C(N)=O)cc1
3. COC(=O)c1ccccc1NC(=O)c1cn(-c2ccc(C)c(C)c2)c(=O)c2ccccc12
4. COc1cc(OC)cc(C(=O)OCc2cc3ccccc3[nH]c2=O)c1
5. COc1ccc(C(C)=O)cc1CSc1nc2ccccc2c(=O)n1-c1ccccc1

result:
1. 6.88 µM
2. inactive
3. inactive
4. inactive
5. > 40 µM (inactive)

---

Assignment: determine reported IC50 for the given compounds.
biological target: Nuclear receptor subfamily 1 group D member 1 (Homo sapiens); assay: modulators of Rev-erb alpha DNA binding, dose response, biochemical, FITC-DNA, fluorescence polarization (AID 1259321)
Activity calls are given as the source filed them.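 Rule for the calls: active = half-maximal concentration for changing protein binding to DNA, from the fitted dose curve, below 10 micromolar; inactive = the rest.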

query: I am curious: what IC50 value has been reported for Fc1ccc(CSc2ncnc3c2oc2ccccc23)cc1 ?
result: 6.81 µM

query: I am curious: what IC50 value has been reported for O=C(COc1ccc2ccccc2c1Br)NNC(=O)Nc1ccccc1 ?
result: 0.778 µM

Return reported IC50 values for all items listed beneath this line.
1. CCOc1ccc(NC(=O)CSc2ncnc3c2sc2ccccc23)cc1
2. Cc1ccc(-n2c(SCC(=O)NCc3ccco3)nc3sc4c(c3c2=O)CC(C)(C)SC4)cc1
3. CCCC(Oc1ccc(Br)cc1)c1nc2c3cc(OC)c(OC)cc3nc(=S)n2[nH]1 (stereo unspecified)

result:
["6.32 µM", "1.93 µM", "> 40 µM (inactive)"]

All figures here come from PubChem BioAssay AID1259321.
